This collection of values is drawn from patent US20170334899A1.

subject of test: human kinase Mps-1 (Homo sapiens, UniProt P33981)
Construct: N-terminally GST-tagged human full length recombinant Mps-1 kinase; GST (N)
Sequence (P33981 whole entry): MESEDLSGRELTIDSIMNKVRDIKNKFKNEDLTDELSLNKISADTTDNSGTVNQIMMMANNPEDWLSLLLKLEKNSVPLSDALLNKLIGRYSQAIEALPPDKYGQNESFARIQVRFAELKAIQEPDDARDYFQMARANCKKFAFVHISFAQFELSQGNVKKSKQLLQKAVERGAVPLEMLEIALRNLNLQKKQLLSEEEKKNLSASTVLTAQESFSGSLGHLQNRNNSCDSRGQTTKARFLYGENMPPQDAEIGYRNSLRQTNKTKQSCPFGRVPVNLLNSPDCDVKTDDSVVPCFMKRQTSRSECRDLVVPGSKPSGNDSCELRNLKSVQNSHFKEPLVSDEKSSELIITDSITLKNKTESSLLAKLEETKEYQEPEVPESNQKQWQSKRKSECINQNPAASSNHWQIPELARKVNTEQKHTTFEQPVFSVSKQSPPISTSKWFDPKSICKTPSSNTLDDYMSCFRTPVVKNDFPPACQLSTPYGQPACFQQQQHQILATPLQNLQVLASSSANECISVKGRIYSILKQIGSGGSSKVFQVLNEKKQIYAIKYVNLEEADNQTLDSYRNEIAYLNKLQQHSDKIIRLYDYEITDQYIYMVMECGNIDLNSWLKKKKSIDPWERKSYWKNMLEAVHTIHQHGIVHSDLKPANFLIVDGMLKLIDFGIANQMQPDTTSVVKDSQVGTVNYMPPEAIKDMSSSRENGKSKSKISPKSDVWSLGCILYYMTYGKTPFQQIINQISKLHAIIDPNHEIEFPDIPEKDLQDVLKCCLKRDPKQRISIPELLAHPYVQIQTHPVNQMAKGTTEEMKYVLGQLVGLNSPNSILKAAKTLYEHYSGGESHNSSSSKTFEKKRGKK
measurement notes: Mps-1 kinase assay (TR-FRET)
particulars: Mps-1 TR-FRET kinase assay; avg; read-out: Mps1 avg (IC50 [mol/l])
pIC50: −log10 of the molar value.
The following compounds are shown together with reported pIC50 values.

- Cc1nsc(Nc2cnc3ccccc3n2)c1C(=O)Nc1ccc(NC2CCCN(C(=O)OC(C)(C)C)C2)nc1 (stereo not shown): < 4.70

Prompt: Kindly indicate its recorded pIC50. Item: Cc1nsc(Nc2cncc(C(F)(F)F)n2)c1C(=O)Nc1ccc(F)c(OC2CCN(CCC(F)(F)F)CC2)c1
Completion: ≤ 4.70

Prompt: Kindly indicate its recorded pIC50. Item: Cc1nsc(Nc2cnc(C(F)(F)F)cn2)c1C(=O)Nc1ccc(OC2CCN(CC(F)F)CC2)nc1
Completion: ≤ 4.70

Prompt: Kindly indicate its recorded pIC50. Item: Cc1nsc(Nc2cnc3ccccc3n2)c1C(=O)Nc1cccc(NS(=O)(=O)C2CCN(C(=O)OC(C)(C)C)CC2)c1
Completion: < 4.70

Prompt: Kindly indicate its recorded pIC50. Item: CCN1CCC(Oc2ccc(NC(=O)c3c(C)nsc3Nc3cc(C#N)ccn3)cn2)CC1
Completion: ≤ 4.70

Prompt: Kindly indicate its recorded pIC50. Item: Cc1nsc(Nc2cnc(C(F)(F)F)cn2)c1C(=O)Nc1ccc(OCC2CCCN(CC(F)F)C2)nc1 (stereo not shown)
Completion: ≤ 4.70

Prompt: Kindly indicate its recorded pIC50. Item: Cc1nsc(Nc2cnc(C(F)(F)F)cn2)c1C(=O)Nc1ccc(OCC2CCN(CCC(F)(F)F)CC2)nc1
Completion: < 4.70
